Test system: MALME-3M melanoma
Run description: NCI tumour cell line growth inhibition, 48 h
Record form. Attribute: TGI. Fill in for each entry.

O=C/C(=C(/Br)I)c1ccccc1; 5.87 µM
CCn1cc(/C=C/C(C)c2cn(CC)c(=O)[nH]c2=O)c(=O)[nH]c1=O (stereo unspecified); > 100 µM
CC(C)(C)c1ccc(-c2nc3ccc([N+](=O)[O-])cc3c(=O)o2)cc1; 75 µM
O=C1Nc2cccc(Cl)c2/C1=C\c1c(Cl)nc2sccn12; > 100 µM
C=C1C[C@](OC)([C@H](O)C(=O)N[C@@H](OC)[C@@H]2C[C@@H](O)C(C)(C)[C@@H](C[C@@H](COC)OC)O2)O[C@H](C)[C@@H]1C; 0.00343 µM

Kindly consider the entry below.
*Q* Tell me TGI reported for CC(C)NC(=O)CN1CCN(C2=CC(=O)c3c(O)ccc(O)c3C2=O)CC1
*A* 4.41 µM

====

Tested on: XF 498 CNS
Run description: NCI tumour cell line growth inhibition, 48 h
Quantity: TGI

Previously resolved entries follow.
CN1C2(c3ccccc3)c3c(-c4ccccc4)sc(-c4ccccc4)c3C1(c1ccccc1)C1C(=O)N(c3ccccc3)C(=O)C12 (stereo not given); > 100 µM
Cc1ccc(NC(=O)c2cccc([N+](=O)[O-])c2O)c([N+](=O)[O-])c1; 36.2 µM
Cc1ccc(-c2nc(SCC(=O)O)n[nH]2)cc1; > 100 µM

Provide each entry's TGI from the list below.
1. COc1ccc(/C=C2\CCCCC2=O)cc1
2. C=C/C=C(\NC(=O)C(Cl)(Cl)Cl)[Si](C)(C)C
3. COC(=O)C1=C(C(=O)OC)C2(OC(C)=O)c3ccccc3-c3ccccc3C12 (stereo not given)
4. C[C@]12CCC[C@H](Cl)C1(O)C[C@H](C(=O)O)CC2 (stereo not given in full)
5. CCOC(=O)C(=O)Nc1c(F)cc(F)cc1Br
6. COc1ccc2oc3c4c2c1CCC4CCC3=O (stereo not given)
7. CC(C)(C)NN=C1C(C)(C)C(=NNC(C)(C)C)C1(C)C

*A*
1: > 100 µM; 2: > 100 µM; 3: 26.1 µM; 4: > 100 µM; 5: > 100 µM; 6: > 100 µM; 7: > 100 µM

====

System: CAKI-1 renal
Run description: NCI tumour cell line growth inhibition, 48 h
Quantity: GI50

# annotated cases, reported GI50 shown
Cc1cc2cc3cc(C)c(N(C)C)cc3nc2cc1N(C)C; 2220 nM
O=C1OCC(c2cccs2)=C1Cl; > 100000 nM
CC(=O)Nc1ccc(Sc2ccc([N+](=O)[O-])o2)cc1; 1410 nM
CN(C)c1ccc(N=Cc2c([O-])ccc3ccccc23)cc1.[C-]#[O+].[C-]#[O+].[Ir]; 22000 nM

Please go through the list and note GI50 for each compound.
1. COc1cc(NCCCCN=C(N)NC(N)=NC(C)C)c2ncccc2c1
2. N=C(N)c1ccc(-c2ccc(-c3ccc(Cl)cc3Cl)s2)cc1F

*A*
["> 100000 nM", "1630 nM"]

====

Test system: HS 578T breast
Run description: NCI tumour cell line growth inhibition, 48 h; in the data active means GI50 below about 0.43 µM; inactive means the rest
Pick from active, inactive when you respond.

Check out these entries, answers already filled in.
O=C1C(Br)=CC2(C=C1Br)CCN=c1c2c(O)c2nc3ccccc3c3ccnc1c23; inactive
COCC1CCCN1c1ccc(/C=C(/C#N)C(N)=S)cc1 (configuration not stated); inactive
CCOc1ccc([C@@H]2[C@@H](Oc3ccccc3)C(=O)N2c2cc(OC)c(OC)c(OC)c2)cc1; active
COc1cc(NCCCCN=C(N)NC(N)=NC(C)C)c2ncccc2c1; inactive
O=C(OCc1ccccc1)N1CCN(/[N+]([O-])=N/Oc2ccc([N+](=O)[O-])cc2[N+](=O)[O-])CC1; inactive
CC(=O)N1CC(Nc2ccc(OC(F)(F)F)cc2)=CC1=O; inactive

*Q* Call for entry Cc1nc2sccn2c(=O)c1CCN1CCC(=C(c2ccc(F)cc2)c2ccc(F)cc2)CC1 :
*A* inactive

*Q* I'd appreciate the recorded outcome for COc1ccc(-c2ccc(/C=N/n3c(COc4ccccc4Cl)nn(CN4CCN(C)CC4)c3=S)o2)c([N+](=O)[O-])c1 from this test.
*A* inactive

*Q* Query: recorded result category for CCCCCCCC/C=C/CCCCCCCC1=NCC[N+]1(CCO)CCO in this test
*A* inactive

*Q* Fill in: this test's call for CC(=O)Nc1ccc(Sc2ccc([N+](=O)[O-])o2)cc1 is ___
*A* inactive

*Q* What was the test verdict on NC(=NCCCOc1ccc(Cl)cc1)Nc1ccc(Cl)cc1 ?
*A* inactive

*Q* Returns: the outcome recorded for CC(C)CCOc1ccc(-c2n[nH]c(C(F)(F)F)c2-c2cncc(C#N)c2)c(O)c1 in this assay.
*A* inactive

====

System: HCT-15 colon
Run description: NCI tumour cell line growth inhibition, 48 h
Hi there, I'd appreciate the recorded TGI for every entry that follows.

Consider the following illustrative entries.
CC(C)C1(C)N=C(C(F)(F)F)c2cc(C(=O)C(F)(F)F)c3ccccc3c2N1 (stereo unspecified); 14.1 µM
CCOC(=O)N1CCc2cc(OC)c(OC)c3c2C1CC3=O (stereo unspecified); > 100 µM
NC(=NCCCOc1ccc(Cl)cc1)Nc1ccc(Cl)cc1; 9.29 µM
Cc1[nH]c(=O)nc(N/N=C/c2ccc(Cl)cc2)c1C(=O)NC(C)(CO)CO; > 100 µM
COc1cc(NCCCCN=C(N)NC(N)=NC(C)C)c2ncccc2c1; > 100 µM

Now for the compound whose TGI we want.
*Q* In one line, give reported TGI of the entry CC(=O)Nc1ccc(Sc2ccc([N+](=O)[O-])o2)cc1 .
*A* 3.18 µM

====

Tested on: OVCAR-5 ovarian
Run description: NCI tumour cell line growth inhibition, 48 h
Quantity: TGI

Worked examples follow.
CCCc1cc(=O)oc2c3c(c4c(c12)OC(C)(C)C=C4)O[C@@H](C)[C@H](C)C3=O; 33.2 µM
CCCCCCOc1ccc(C(=O)NOCc2ccccc2)cc1; > 100 µM
O=c1[nH]c(Nc2cccc(C(F)(F)F)c2)nc2nc[nH]c12; > 100 µM
CC1OC(OC2C(O[C@H]3CC[C@@]4(C)[C@@H](CC[C@@H]5[C@@H]4CC[C@]4(C)[C@@H]6[C@H](C[C@@H]54)O[C@]4(CC[C@@H](C)CO4)[C@H]6C)C3)OC(CO)C(OC3OC(CO)C(O)C(OC4OCC(O)C(O)C4O)C3OC3OCC(O)C(O)C3O)C2O)C(O)C(O)C1O (stereo partly drawn); 2.42 µM

Hi, could you look up TGI for each item in my list?
1. COc1ccc2nc3cccc([N+](=O)[O-])c3c(NCCO)c2c1
2. COc1ccccc1-n1c(-c2cc(O)ccc2C)cn2c3c(=O)[nH]c(=O)n(C)c3nc12
3. COc1ccc(C(O)/C(=N\NC(N)=S)c2nc3ccc([N+](=O)[O-])cc3[nH]c2=O)cc1OC (stereo not drawn)
4. COc1ccc(C2C3C(=O)C=CC(=O)C3[C@@H]2C)cc1OC (stereo partly drawn)

*A*
1. 0.0698 µM
2. > 100 µM
3. > 100 µM
4. > 100 µM

====

I'd be grateful if you could share measured TGI for these entries.
System: ACHN renal
Run description: NCI tumour cell line growth inhibition, 48 h

// solved cases for TGI follow
C/C(=N\NC(=O)c1ccncc1)c1ccc2ccccc2c1O; > 100 µM
COc1ccc(N=C(C)c2ccncc2)cc1; > 100 µM
CCCn1c(SCC)c2ccccc2c1-c1nc(F)nc(F)n1; > 100 µM
CC(=O)C1CC=C(C)CC1 (configuration not stated); > 100 µM
CC(C)(C)c1ccc(-c2nc3ccc([N+](=O)[O-])cc3c(=O)o2)cc1; 90.5 µM

For every record below, what is its TGI?
1. CC(C)C1(C)N=C(C(F)(F)F)c2cc(C(=O)C(F)(F)F)c3ccccc3c2N1 (configuration not stated)
2. CC(=O)Oc1cc(OC(C)=O)c2c(=O)c3ccccc3[nH]c2c1
3. O=C/C(=C(/Br)I)c1ccccc1
4. Brc1ccc(-c2nnc(-c3nn(-c4ccccc4)c4nc5ccccc5nc34)o2)cc1
5. C[C@H](Nc1c(O)c2c(c(O)c1Cl)C(=O)C=CC2=O)C(=O)Nc1ccc([N+](=O)[O-])cc1

*A*
1: 12 µM; 2: > 100 µM; 3: 9.63 µM; 4: > 100 µM; 5: 9.31 µM

Each molecule below has a recorded value; state its TGI.
1. CN1CN(c2ccccc2)C2(CCN(CCCSc3ccccc3NC(=O)/C=C/c3ccccc3)CC2)C1=O
2. COC(=O)C(O)P(=O)(OC)OC (configuration not stated)
3. N#Cc1c(-c2ccco2)cc(-c2ccc(NCc3nc4ccccc4[nH]3)cc2)nc1N
4. O=[N+]([O-])c1ccc(-c2nc(-c3ccccc3)c(-c3ccccc3)n2-c2ccccc2)cc1
5. CCCCCCCC/C=C/CCCCCCCCC1=NCCN1CCO
6. COc1cccc(C2C(C#N)=C(N)Oc3cc(N)ccc32)c1 (configuration not stated)
7. Cc1cn(C2CCC(/C=N\O)O2)c(=O)[nH]c1=O (configuration not stated)

*A*
1: 9.81 µM; 2: > 100 µM; 3: > 100 µM; 4: 27.4 µM; 5: 8.39 µM; 6: > 100 µM; 7: > 100 µM

// each listed molecule needs a value for TGI
1. CC(=O)c1c(C(F)(F)F)n([O-])c2ccc(Cl)cc2[n+]1=O
2. CN(C)c1ccc(C(=C2C=CC(=[N+](C)C)C=C2)c2ccc(N(C)C)cc2)cc1 (tested in a mixture with another compound)
3. COc1ccc(/C=C2\C[C@H]3[C@@H]4CCC5=C[C@@H](N6CCCC6)CC[C@]5(C)[C@H]4CC[C@]3(C)[C@H]2O)cc1
4. O=C(O)C1C(C(=O)Nc2ccc3c(c2)Cc2ccccc2-3)C2(Cl)C(Cl)=C(Cl)C1(Cl)C2(Cl)Cl (configuration not stated)
5. COc1cc(C2c3cc4c(cc3OC(Nc3ccc(C(=O)O)cc3)C2C)OCO4)cc(OC)c1OC (configuration not stated)
6. CC(C)NC(=O)CN1CCN(C2=CC(=O)c3c(O)ccc(O)c3C2=O)CC1
7. O=C1C(Br)=CC2(C=C1Br)CCN=c1c2c(O)c2nc3ccccc3c3ccnc1c23
8. COc1cc2c(cc1OCCOS(C)(=O)=O)N=C[C@@H]1CCCN1C2=O

*A*
["4.96 µM", "1.48 µM", "11.7 µM", "> 100 µM", "> 68.6 µM", "54.1 µM", "1.7 µM", "29.5 µM"]
